Target: human type X sPLA2 (Homo sapiens, UniProt O15496)
Construct: made in house; unpurified culture supernatant
Sequence (O15496 43-165): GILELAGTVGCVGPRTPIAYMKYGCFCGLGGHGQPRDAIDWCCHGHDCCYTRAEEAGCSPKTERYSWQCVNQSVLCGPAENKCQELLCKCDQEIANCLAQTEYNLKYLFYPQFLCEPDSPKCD
Assay: Inhibition test of human secretory phospholipase A2, chromogenic assay, type X enzyme
Type: biochemical
IC50 by entry:
measurement_kind: IC50

- structure_notation: "Cc1cc(OCC(=O)NS(=O)(=O)c2ccccc2)c2c(C(=O)C(N)=O)c(CC(C)C)n(Cc3ccccc3)c2c1"
  measured_target: "human type X sPLA2 (Homo sapiens, UniProt O15496)"
  result: "23 nM"
- structure_notation: "CC(C)Cc1c(C(=O)C(N)=O)c2c(OCC(=O)NS(=O)(=O)c3ccccc3)cccc2n1Cc1ccccc1"
  measured_target: "human type X sPLA2 (Homo sapiens, UniProt O15496)"
  result: "8 nM"
- structure_notation: "Cc1cc(OCC(=O)NS(C)(=O)=O)c2c(C(=O)C(N)=O)c(CC(C)C)n(Cc3ccccc3)c2c1"
  measured_target: "human type X sPLA2 (Homo sapiens, UniProt O15496)"
  result: "7 nM"
- structure_notation: "Cc1cc(OCC(=O)O)c2c(C(=O)C(N)=O)c(CC(C)C)n(Cc3ccccc3)c2c1"
  measured_target: "human type X sPLA2 (Homo sapiens, UniProt O15496)"
  result: "28 nM"
- structure_notation: "CC(C)Cc1c(C(=O)C(N)=O)c2c(OCC(=O)NS(C)(=O)=O)cccc2n1Cc1ccccc1"
  measured_target: "human type X sPLA2 (Homo sapiens, UniProt O15496)"
  result: "6 nM"
- structure_notation: "CC(C)Cc1c(C(=O)C(N)=O)c2c(OCC(=O)NS(=O)(=O)c3ccccc3)cccc2n1Cc1ccc(F)cc1"
  measured_target: "human type X sPLA2 (Homo sapiens, UniProt O15496)"
  result: "8 nM"
- structure_notation: "CC(C)Cc1c(C(=O)C(N)=O)c2c(OCC(=O)O)cccc2n1CC1CCCCC1"
  measured_target: "human type X sPLA2 (Homo sapiens, UniProt O15496)"
  result: "32 nM"
- structure_notation: "CC(C)Cc1c(C(=O)C(N)=O)c2c(OCC(=O)O)cccc2n1Cc1ccc(F)cc1"
  measured_target: "human type X sPLA2 (Homo sapiens, UniProt O15496)"
  result: "12 nM"
- structure_notation: "CC(C)Cc1c(C(=O)C(N)=O)c2c(OCC(=O)O)cccc2n1Cc1ccccc1"
  measured_target: "human type X sPLA2 (Homo sapiens, UniProt O15496)"
  result: "13 nM"

---

Target: human type X sPLA2 (Homo sapiens)
Construct: made in house; unpurified culture supernatant
Test: Inhibition test of human secretory phospholipase A2, chromogenic assay, type X enzyme
Assay type: biochemical
Conditions: human sPLA2 type X (CHO supernatant), chromogenic assay, 30 min; read-out: IC50 type X
pIC50: −log10 of the molar value.
Known pIC50 of a selection of compounds

- compound: "Cc1cn2c(CC3CCCCC3)c(CC(C)C)c(C(=O)C(N)=O)c2c(OCC(=O)O)n1 [Compound I-2]"
  pIC50: 7.37
- compound: "Cc1cn2c(Cc3ccccc3)c(CC(C)C)c(C(=O)C(N)=O)c2c(OCC(=O)O)n1 [Compound I-1]"
  pIC50: 7.49
- compound: "Cc1cc(OCC(=O)O)c2c(C(=O)C(N)=O)c(CC(C)C)c(Cc3ccccc3)n2n1 [Compound I-9]"
  pIC50: 7.66
- compound: "Cc1cn2c(Cc3ccccc3)c(CC(C)C)c(C(=O)C(N)=O)c2c(OCC(=O)NS(=O)(=O)c2ccccc2)n1 [Compound I-15]"
  pIC50: 7.43
- compound: "Cc1cn2c(CC3CCCC3)c(CC(C)C)c(C(=O)C(N)=O)c2c(OCC(=O)O)n1 [Compound I-3]"
  pIC50: 7.32
- compound: "Cc1cc(OCC(=O)NS(=O)(=O)c2ccccc2)c2c(C(=O)C(N)=O)c(CC(C)C)c(Cc3ccccc3)n2n1 [Compound I-32]"
  pIC50: 7.34
